This document collects pIC50 values reported for CDK2 (UniProt P24941).
pIC50: −log10 of the molar value.

mol: O=C1Nc2cc(Br)ccc2/C1=C/c1[nH]cc2c1CCNC2=O
operator: <
pIC50: 5.00
--
mol: O=C1Nc2cccc(CCO)c2/C1=C/c1[nH]cc2c1CCOC2=O
operator: =
pIC50: 7.52
--
mol: O=C1Nc2ccc(S(=O)(=O)Nc3ccccc3)cc2/C1=C/c1[nH]cc2c1CCOC2=O
operator: =
pIC50: 7.40
--
mol: COc1ccc2c(c1)/C(=C/c1[nH]cc3c1CCNC3=O)C(=O)N2
operator: =
pIC50: 6.54
--
mol: O=C1Nc2cc(Br)ccc2/C1=C/c1[nH]cc2c1CCOC2=O
operator: =
pIC50: 6.01
--
mol: O=C1Nc2cc(C(=O)O)ccc2/C1=C/c1[nH]cc2c1CCOC2=O
operator: =
pIC50: 5.97
--
mol: O=C1Nc2ccc(C(=O)N3CCCC3)cc2/C1=C/c1[nH]cc2c1CCNC2=O
operator: =
pIC50: 7.15
--
mol: O=C1Nc2c(Cl)cccc2/C1=C/c1[nH]cc2c1CCOC2=O
operator: =
pIC50: 5.59
--
mol: CN(C)C(=O)c1ccc2c(c1)/C(=C/c1[nH]cc3c1CCNC3=O)C(=O)N2
operator: =
pIC50: 7.05
--
mol: NS(=O)(=O)c1ccc2c(c1)/C(=C/c1[nH]cc3c1CCOC3=O)C(=O)N2
operator: =
pIC50: 8.00
--
mol: O=C1Nc2cccc(CCO)c2/C1=C/c1[nH]cc2c1CCNC2=O
operator: =
pIC50: 6.35
--
mol: O=C1Nc2cc(F)ccc2/C1=C/c1[nH]cc2c1CCOC2=O
operator: =
pIC50: 6.44
